- subject of test: human m3 receptor subtype (Homo sapiens, UniProt P20309)
- Construct: expressed in transfected cells
- Sequence (P20309 whole entry): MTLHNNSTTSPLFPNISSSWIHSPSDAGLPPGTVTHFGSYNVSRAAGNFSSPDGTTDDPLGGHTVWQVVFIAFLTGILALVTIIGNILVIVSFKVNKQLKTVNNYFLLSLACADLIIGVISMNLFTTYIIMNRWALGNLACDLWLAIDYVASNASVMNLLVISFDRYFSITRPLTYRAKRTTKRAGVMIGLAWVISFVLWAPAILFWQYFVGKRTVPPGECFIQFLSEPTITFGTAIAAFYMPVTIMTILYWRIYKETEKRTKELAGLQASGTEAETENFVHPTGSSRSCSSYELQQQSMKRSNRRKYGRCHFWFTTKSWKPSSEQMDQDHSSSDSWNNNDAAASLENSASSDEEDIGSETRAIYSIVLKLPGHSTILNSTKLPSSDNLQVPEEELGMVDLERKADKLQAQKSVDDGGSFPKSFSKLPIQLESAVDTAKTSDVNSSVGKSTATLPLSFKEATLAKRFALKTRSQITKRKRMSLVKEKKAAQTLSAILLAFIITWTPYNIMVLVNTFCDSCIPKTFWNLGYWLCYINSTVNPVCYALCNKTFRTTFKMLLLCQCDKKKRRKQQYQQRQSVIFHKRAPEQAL
- assay: Agonist-induced hydrolysis of inositol phospholipids (PI hydrolysis) in CHO-K1 cells expressing m3
- Assay type: cell-based
- condition set: CHO-K1 m3 cells; EC50 calculated as 50% of the maximum response of the PI hydrolysis; read-out: POTENCY ON PI HYDROLYSIS, EC 50, m3 cells
- Experimental: Chinese hamster ovary (CHO-K1) cells stably expressing the human m3 or m5 receptor subtype were grown to confluency in DMEM/F12 medium containing 10% fetal calf serum and 1 unit/ml penicillin/streptomycin in a 37° C. incubator. Activity of muscarinic agonists in these cells was determined by measuring agonist induced hydrolysis of inositol phospholipids. […] Radioactivity of the unhydrolyzed inositol phospholipids was also determined and percent hydrolysis calculated as a measure of agonist activity. […]

molecule: CC(=O)N(C)C(C)C#CCN1CCCC1 (stereo not drawn)
EC50 (nM): 300
--
molecule: CC[C@H]1C(=O)NC[C@@H]1Cc1cncn1C
EC50 (nM): 20000
--
molecule: CC1CCC(=O)N1CC#CCN1CCC1 (stereo not drawn)
EC50 (nM): 800

---

Each entry below lists one item and its recorded EC50 value.
- subject of test: human m5 receptor subtype (Homo sapiens, UniProt P08912)
- Sequence (P08912 whole entry): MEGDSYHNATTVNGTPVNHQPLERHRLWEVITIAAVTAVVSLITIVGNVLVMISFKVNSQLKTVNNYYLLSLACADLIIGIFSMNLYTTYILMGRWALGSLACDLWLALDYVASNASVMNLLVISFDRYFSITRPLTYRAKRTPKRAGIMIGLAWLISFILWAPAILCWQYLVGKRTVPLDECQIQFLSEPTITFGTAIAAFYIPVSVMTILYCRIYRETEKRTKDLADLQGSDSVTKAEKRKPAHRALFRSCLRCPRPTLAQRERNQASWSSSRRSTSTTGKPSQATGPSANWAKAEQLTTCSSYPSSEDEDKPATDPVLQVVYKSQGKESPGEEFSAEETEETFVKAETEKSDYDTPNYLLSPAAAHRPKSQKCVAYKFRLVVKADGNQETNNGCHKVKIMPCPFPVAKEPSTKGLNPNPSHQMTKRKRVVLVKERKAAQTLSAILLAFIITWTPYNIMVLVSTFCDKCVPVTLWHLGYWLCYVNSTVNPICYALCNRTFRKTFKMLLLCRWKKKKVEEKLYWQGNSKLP
- assay: Agonist-induced hydrolysis of inositol phospholipids (PI hydrolysis) in CHO-K1 cells expressing m5
- condition set: CHO-K1 m5 cells; EC50 calculated as 50% of the maximum response of the PI hydrolysis; read-out: POTENCY ON PI HYDROLYSIS, EC 50, m5 cells

compound: CC1CCC(=O)N1CC#CCN1CCC1 (stereo not drawn) [BR-370]
EC50 / nM: 700

compound: CC[C@H]1C(=O)NC[C@@H]1Cc1cncn1C [AGN 190456]
EC50 / nM: 5000

compound: CC(=O)N(C)C(C)C#CCN1CCCC1 (stereo not drawn) [BM-5]
EC50 / nM: 60
